organism: Rattus norvegicus; experiment: Modulation of gamma-secretase in rat fetus primary neurons assessed as inhibition of amyloid beta42 production at 2.5 uM after 1 to 3 days by ELISA
readout_type: inhibition (%)

molecule: COc1cc(C(=O)N[C@@H]2CCCN(Cc3ccc(Br)cc3)C2)ccc1-n1cnc(C)c1
numeric_value: 55

molecule: COc1ccc(CN2CCCC(NC(=O)c3ccc(-n4cnc(C)c4)c(OC)c3)C2)cc1 (racemic)
numeric_value: 45

molecule: COc1cc(C(=O)NC2CCCN(C(=O)NCc3ccccc3)C2)ccc1-n1cnc(C)c1 (racemic)
numeric_value: 25

molecule: COc1cc(C(=O)NC2CCCN(C(=O)NCc3ccc(Br)cc3)C2)ccc1-n1cnc(C)c1 (racemic)
numeric_value: 47
